Just for reference, patent US20230129258A1 is where these values come from.

Consider the following substances and their measured EC50 readings.
biological target: CD137 (Homo sapiens); assay: CD137 reporter assay (Promega, Jurkat cells) in co-culture with EphA2-expressing tumor cells (A549, PC3, HT29); format: cell-based; set-up: host or cells: Jurkat reporter cells; conditions: EC50, CD137 reporter coculture assay with PC3 tumor cells
Sequence (Q07011 24-255): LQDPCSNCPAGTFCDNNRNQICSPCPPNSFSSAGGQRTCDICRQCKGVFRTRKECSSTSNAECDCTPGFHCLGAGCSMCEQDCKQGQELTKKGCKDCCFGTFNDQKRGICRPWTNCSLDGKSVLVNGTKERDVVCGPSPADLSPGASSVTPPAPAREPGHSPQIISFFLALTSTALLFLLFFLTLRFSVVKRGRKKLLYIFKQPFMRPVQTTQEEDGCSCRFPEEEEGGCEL
Starred links: 1 amine or outer side, 2 acyl side, 3 side chain; linkers in the order of their positions; H or OH if unused. Positions of bridges follow the written chain, without caps; N, C: chain ends. Non-standard residues stand in square brackets, D forms with d. Chains are numbered I, II in the order given. ξ: configuration not given here. X1 = O=C(CCOCCOCCOCCN(CCOCCOCCOCCn1cc(CCC(=O)[*:2])nn1)CCOCCOCCOCCn1cc(CCC(=O)[*:3])nn1)[*:1]; TATA = O=C(CC[*:1])N1CN(C(=O)CC[*:2])CN(C(=O)CC[*:3])C1; Dip = N[C@H](C(=O)O)C(c1ccccc1)c1ccccc1; Hyp = O=C(O)[C@@H]1C[C@@H](O)CN1; hArg = N=C(N)NCCCC[C@H](N)C(=O)O; tBuAla = CC(C)(C)C[C@H](N)C(=O)O; Cba = N[C@@H](CC1CCC1)C(=O)O; Nle = CCCC[C@H](N)C(=O)O; ξP = O=C(O)C1CCCN1
Dear colleague, please return just the value in pM, with no unit written.

substance	EC50, pM
I: A[hArg]DC[Hyp][Cba]VN[ξP]LCLHP[dD]W[hArg]C-NH2 / II: Ac-C[tBuAla]PE[dK]PYCFADPY[Nle]CA-NH2 / III: Ac-C[tBuAla]PE[dK]PYCFADPY[Nle]CA-NH2 (linker I:4-I:11-I:18, II:1-II:8-II:15, III:1-III:8-III:15 via TATA; linker I:N-II:5-III:5 via X1) [BCY13050]	90

// next entry
Would you mind telling me what EC50 value was observed for I: Ac-C[Hyp]LVNPLCL[Dip]P[dD]WTC[dK]-NH2 / II: Ac-C[tBuAla]PE[dK]PYCFADPY[Nle]CA-NH2 / III: Ac-C[tBuAla]PE[dK]PYCFADPY[Nle]CA-NH2 (linker I:1-I:8-I:15, II:1-II:8-II:15, III:1-III:8-III:15 via TATA; linker I:16-II:5-III:5 via X1; C-terminus assumed) [BCY13274] ?
190

* * *

experiment: Pharmacokinetics in CD1 mice; assay type: in vivo, CD-1 mice; conditions: male, CD-1, mouse, plasma; 5.5 mg/kg IV, n=3; read-out: Clearance
Starred links: 1 amine or outer side, 2 acyl side, 3 side chain; linkers in the order of their positions; H or OH if unused. Positions of bridges follow the written chain, without caps; N, C: chain ends. Non-standard residues stand in square brackets, D forms with d. Chains are numbered I, II in the order given. X1 = O=C(CCOCCOCCOCCN(CCOCCOCCOCCn1cc(CCC(=O)[*:2])nn1)CCOCCOCCOCCn1cc(CCC(=O)[*:3])nn1)[*:1]; TATA = O=C(CC[*:1])N1CN(C(=O)CC[*:2])CN(C(=O)CC[*:3])C1; d1Nal = N[C@H](Cc1cccc2ccccc12)C(=O)O; Hyp = O=C(O)[C@@H]1C[C@@H](O)CN1; hArg = N=C(N)NCCCC[C@H](N)C(=O)O; tBuAla = CC(C)(C)C[C@H](N)C(=O)O; Nle = CCCC[C@H](N)C(=O)O
parameter: clearance (mL/min/kg)
Field format: number, assumed mL/min/kg, no unit text.

Reported clearance, substance I: A[hArg]DC[Hyp]LVNPLCLEP[d1Nal]WTC-NH2 / II: Ac-C[tBuAla]PE[dK]PYCFADPY[Nle]CA-NH2 / III: Ac-C[tBuAla]PE[dK]PYCFADPY[Nle]CA-NH2 (linker I:4-I:11-I:18, II:1-II:8-II:15, III:1-III:8-III:15 via TATA; linker I:N-II:5-III:5 via X1) [BCY13272] : ____
7.5

* * *

test: Pharmacokinetics in cynomolgus monkey; format: in vivo; conditions: plasma, 9.2 mg/kg IV infusion (15 min), read-out: volume of distribution at steady state (Vdss)
Starred links: 1 amine or outer side, 2 acyl side, 3 side chain; linkers in the order of their positions; H or OH if unused. Positions of bridges follow the written chain, without caps; N, C: chain ends. Non-standard residues stand in square brackets, D forms with d. Chains are numbered I, II in the order given. X1 = O=C(CCOCCOCCOCCN(CCOCCOCCOCCn1cc(CCC(=O)[*:2])nn1)CCOCCOCCOCCn1cc(CCC(=O)[*:3])nn1)[*:1]; TATA = O=C(CC[*:1])N1CN(C(=O)CC[*:2])CN(C(=O)CC[*:3])C1; d1Nal = N[C@H](Cc1cccc2ccccc12)C(=O)O; Hyp = O=C(O)[C@@H]1C[C@@H](O)CN1; hArg = N=C(N)NCCCC[C@H](N)C(=O)O; tBuAla = CC(C)(C)C[C@H](N)C(=O)O; Nle = CCCC[C@H](N)C(=O)O
parameter: Vd (L/kg)
Only the number, expressed in L/kg, is required.

Endpoint output: Vd of I: A[hArg]DC[Hyp]LVNPLCLEP[d1Nal]WTC-NH2 / II: Ac-C[tBuAla]PE[dK]PYCFADPY[Nle]CA-NH2 / III: Ac-C[tBuAla]PE[dK]PYCFADPY[Nle]CA-NH2 (linker I:4-I:11-I:18, II:1-II:8-II:15, III:1-III:8-III:15 via TATA; linker I:N-II:5-III:5 via X1) [BCY13272] . Value?
0.82

* * *

experiment: Pharmacokinetics in SD rats; assay type: in vivo; conditions: male, SD, rat, plasma; 3.6 mg/kg IV infusion (15 min), n=3; read-out: clearance
Starred links: 1 amine or outer side, 2 acyl side, 3 side chain; linkers in the order of their positions; H or OH if unused. Positions of bridges follow the written chain, without caps; N, C: chain ends. Non-standard residues stand in square brackets, D forms with d. Chains are numbered I, II in the order given. X1 = O=C(CCOCCOCCOCCN(CCOCCOCCOCCn1cc(CCC(=O)[*:2])nn1)CCOCCOCCOCCn1cc(CCC(=O)[*:3])nn1)[*:1]; TATA = O=C(CC[*:1])N1CN(C(=O)CC[*:2])CN(C(=O)CC[*:3])C1; d1Nal = N[C@H](Cc1cccc2ccccc12)C(=O)O; Hyp = O=C(O)[C@@H]1C[C@@H](O)CN1; hArg = N=C(N)NCCCC[C@H](N)C(=O)O; tBuAla = CC(C)(C)C[C@H](N)C(=O)O; Nle = CCCC[C@H](N)C(=O)O
parameter: clearance (mL/min/kg)
Output spec: scalar in mL/min/kg, unitless text.

Which clearance is listed for I: A[hArg]DC[Hyp]LVNPLCLEP[d1Nal]WTC-NH2 / II: Ac-C[tBuAla]PE[dK]PYCFADPY[Nle]CA-NH2 / III: Ac-C[tBuAla]PE[dK]PYCFADPY[Nle]CA-NH2 (linker I:4-I:11-I:18, II:1-II:8-II:15, III:1-III:8-III:15 via TATA; linker I:N-II:5-III:5 via X1) [BCY13272] ?
7.5

* * *

target: CD137 (Homo sapiens); experiment: CD137 reporter assay (Promega, Jurkat cells) in co-culture with EphA2-expressing tumor cells (A549, PC3, HT29); type: cell-based; design: host or cells: Jurkat reporter cells; conditions: CD137 reporter coculture assay with PC3 tumor cells; read-out: Emax (fold induction over background)
Starred links: 1 amine or outer side, 2 acyl side, 3 side chain; linkers in the order of their positions; H or OH if unused. Positions of bridges follow the written chain, without caps; N, C: chain ends. Non-standard residues stand in square brackets, D forms with d. Chains are numbered I, II in the order given. X1 = O=C(CCOCCOCCOCCN(CCOCCOCCOCCn1cc(CCC(=O)[*:2])nn1)CCOCCOCCOCCn1cc(CCC(=O)[*:3])nn1)[*:1]; TATA = O=C(CC[*:1])N1CN(C(=O)CC[*:2])CN(C(=O)CC[*:3])C1; Hyp = O=C(O)[C@@H]1C[C@@H](O)CN1; hArg = N=C(N)NCCCC[C@H](N)C(=O)O; tBuAla = CC(C)(C)C[C@H](N)C(=O)O; dNle = CCCC[C@@H](N)C(=O)O; Nle = CCCC[C@H](N)C(=O)O
Labelling: fold induction reported below 50 becomes yes (1); at or above becomes no (0).

substance	category.label
I: Ac-A[hArg]DC[Hyp]LVNPLCLKP[dD]W[hArg]C-NH2 / II: Ac-C[tBuAla]PE[dK]PYCFADPY[Nle]CA-NH2 / III: Ac-C[tBuAla]PE[dK]PYCFADPY[Nle]CA-NH2 (linker I:4-I:11-I:18, II:1-II:8-II:15, III:1-III:8-III:15 via TATA; linker I:13-II:5-III:5 via X1) [BCY12974]	no (0)

Attention now turns to another entry.
Is it true that fold induction reported for I: A[hArg]DC[Hyp]LVNPLCLHP[dNle]W[hArg]C-NH2 / II: Ac-C[tBuAla]PE[dK]PYCFADPY[Nle]CA-NH2 / III: Ac-C[tBuAla]PE[dK]PYCFADPY[Nle]CA-NH2 (linker I:4-I:11-I:18, II:1-II:8-II:15, III:1-III:8-III:15 via TATA; linker I:N-II:5-III:5 via X1) [BCY13288] is less than 50?
yes (1)
